Listing of entries alongside the reported PBM binding z-score.
Test system: PXR homodimer (NR concentration 270 nM)
Experiment: PBM binding z-score (relative to random genomic background probes); higher = stronger binding; sequences stand for … in GC…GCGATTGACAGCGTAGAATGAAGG
Endpoint: PBM binding z-score

- Sequence entry: "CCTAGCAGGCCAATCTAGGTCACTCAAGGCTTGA"
  Target or test system: "PXR homodimer (NR concentration 270 nM)"
  Endpoint: "PBM binding z-score"
  Value reported: -0.261
- Sequence entry: "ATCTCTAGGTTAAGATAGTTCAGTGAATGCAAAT"
  Target or test system: "PXR homodimer (NR concentration 270 nM)"
  Endpoint: "PBM binding z-score"
  Value reported: 0.756
- Sequence entry: "ATCGAAAGGTCGACCAGGTGAGTATACACCGTTT"
  Target or test system: "PXR homodimer (NR concentration 270 nM)"
  Endpoint: "PBM binding z-score"
  Value reported: 0.258
- Sequence entry: "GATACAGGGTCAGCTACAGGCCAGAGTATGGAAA"
  Target or test system: "PXR homodimer (NR concentration 270 nM)"
  Endpoint: "PBM binding z-score"
  Value reported: -0.273
- Sequence entry: "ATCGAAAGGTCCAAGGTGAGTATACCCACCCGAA"
  Target or test system: "PXR homodimer (NR concentration 270 nM)"
  Endpoint: "PBM binding z-score"
  Value reported: -0.107
- Sequence entry: "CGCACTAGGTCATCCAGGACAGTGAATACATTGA"
  Target or test system: "PXR homodimer (NR concentration 270 nM)"
  Endpoint: "PBM binding z-score"
  Value reported: 0.888
- Sequence entry: "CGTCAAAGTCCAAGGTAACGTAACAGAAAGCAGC"
  Target or test system: "PXR homodimer (NR concentration 270 nM)"
  Endpoint: "PBM binding z-score"
  Value reported: 0.233
- Sequence entry: "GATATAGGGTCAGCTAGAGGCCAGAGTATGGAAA"
  Target or test system: "PXR homodimer (NR concentration 270 nM)"
  Endpoint: "PBM binding z-score"
  Value reported: 0.376
- Sequence entry: "AATACAGGGTCACGAGGCCAGAGTAGGTACGAAT"
  Target or test system: "PXR homodimer (NR concentration 270 nM)"
  Endpoint: "PBM binding z-score"
  Value reported: 0.257
- Sequence entry: "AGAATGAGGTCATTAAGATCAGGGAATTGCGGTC"
  Target or test system: "PXR homodimer (NR concentration 270 nM)"
  Endpoint: "PBM binding z-score"
  Value reported: 5.08
- Sequence entry: "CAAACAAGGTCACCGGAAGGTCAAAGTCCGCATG"
  Target or test system: "PXR homodimer (NR concentration 270 nM)"
  Endpoint: "PBM binding z-score"
  Value reported: 4.84
- Sequence entry: "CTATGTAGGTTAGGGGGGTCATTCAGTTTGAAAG"
  Target or test system: "PXR homodimer (NR concentration 270 nM)"
  Endpoint: "PBM binding z-score"
  Value reported: 11.2
- Sequence entry: "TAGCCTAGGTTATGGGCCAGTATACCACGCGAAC"
  Target or test system: "PXR homodimer (NR concentration 270 nM)"
  Endpoint: "PBM binding z-score"
  Value reported: -0.214
- Sequence entry: "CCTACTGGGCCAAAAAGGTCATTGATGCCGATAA"
  Target or test system: "PXR homodimer (NR concentration 270 nM)"
  Endpoint: "PBM binding z-score"
  Value reported: 3.96
- Sequence entry: "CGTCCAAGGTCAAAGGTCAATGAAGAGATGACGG"
  Target or test system: "PXR homodimer (NR concentration 270 nM)"
  Endpoint: "PBM binding z-score"
  Value reported: 1.95
- Sequence entry: "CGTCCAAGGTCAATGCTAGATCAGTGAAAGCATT"
  Target or test system: "PXR homodimer (NR concentration 270 nM)"
  Endpoint: "PBM binding z-score"
  Value reported: 0.745
- Sequence entry: "GCTTACAGGTCAAAGGTTATAGCATGAATAGAAT"
  Target or test system: "PXR homodimer (NR concentration 270 nM)"
  Endpoint: "PBM binding z-score"
  Value reported: 0.923
- Sequence entry: "TCTTGTAGGTCAATAGAGGTTAAGAAAGTGCGCT"
  Target or test system: "PXR homodimer (NR concentration 270 nM)"
  Endpoint: "PBM binding z-score"
  Value reported: 0.719
- Sequence entry: "CGTCAAAGGTCAAGGTCAGTGAAAGAGACTCGAA"
  Target or test system: "PXR homodimer (NR concentration 270 nM)"
  Endpoint: "PBM binding z-score"
  Value reported: 1.8
- Sequence entry: "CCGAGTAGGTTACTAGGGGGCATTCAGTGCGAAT"
  Target or test system: "PXR homodimer (NR concentration 270 nM)"
  Endpoint: "PBM binding z-score"
  Value reported: 6.49
- Sequence entry: "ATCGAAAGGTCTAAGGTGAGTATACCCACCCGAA"
  Target or test system: "PXR homodimer (NR concentration 270 nM)"
  Endpoint: "PBM binding z-score"
  Value reported: 0.247
- Sequence entry: "TCTCGGAGGTCACGAAAGGTCAGAGCTCGACATC"
  Target or test system: "PXR homodimer (NR concentration 270 nM)"
  Endpoint: "PBM binding z-score"
  Value reported: 3.6
